biological target: UniProtKB P42338; test: Cellular p-Akt (S473) SureFire assay, Rat-1_PI3Kbeta cells (Assay I); type: cell-based; details: p-AKT (Ser473) in Rat-1 cells expressing myr-HA-hp110 beta, 1 h compound; read-out: Assay I PI3Kβ IC50
Sequence (P42338 whole entry): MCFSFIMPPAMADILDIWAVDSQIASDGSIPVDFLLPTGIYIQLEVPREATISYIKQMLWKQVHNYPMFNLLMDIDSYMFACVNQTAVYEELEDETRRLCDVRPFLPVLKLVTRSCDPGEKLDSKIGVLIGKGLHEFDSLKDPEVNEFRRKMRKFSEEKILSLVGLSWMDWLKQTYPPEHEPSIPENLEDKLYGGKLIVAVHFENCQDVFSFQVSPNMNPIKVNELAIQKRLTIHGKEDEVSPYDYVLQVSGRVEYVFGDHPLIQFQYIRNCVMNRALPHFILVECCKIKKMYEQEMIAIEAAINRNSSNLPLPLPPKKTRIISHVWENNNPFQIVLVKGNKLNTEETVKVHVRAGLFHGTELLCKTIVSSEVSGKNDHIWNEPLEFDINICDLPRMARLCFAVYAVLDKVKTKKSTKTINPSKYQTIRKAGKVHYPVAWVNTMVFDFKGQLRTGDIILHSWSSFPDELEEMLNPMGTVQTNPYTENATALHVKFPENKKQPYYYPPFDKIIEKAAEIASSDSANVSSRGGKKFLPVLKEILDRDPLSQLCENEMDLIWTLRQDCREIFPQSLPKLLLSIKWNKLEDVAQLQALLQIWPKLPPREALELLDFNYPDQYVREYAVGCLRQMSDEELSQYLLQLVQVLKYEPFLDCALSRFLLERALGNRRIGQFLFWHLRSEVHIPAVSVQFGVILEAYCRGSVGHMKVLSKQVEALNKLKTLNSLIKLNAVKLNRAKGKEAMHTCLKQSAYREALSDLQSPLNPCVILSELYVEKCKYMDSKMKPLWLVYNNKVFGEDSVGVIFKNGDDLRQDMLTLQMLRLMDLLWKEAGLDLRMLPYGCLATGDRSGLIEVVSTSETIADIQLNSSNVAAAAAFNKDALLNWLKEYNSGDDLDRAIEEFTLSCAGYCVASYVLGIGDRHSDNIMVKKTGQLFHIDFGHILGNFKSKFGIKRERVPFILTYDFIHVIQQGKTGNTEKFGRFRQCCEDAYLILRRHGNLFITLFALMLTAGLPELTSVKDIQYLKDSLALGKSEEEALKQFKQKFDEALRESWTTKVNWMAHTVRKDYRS
Sequence (Q63787 whole entry partner): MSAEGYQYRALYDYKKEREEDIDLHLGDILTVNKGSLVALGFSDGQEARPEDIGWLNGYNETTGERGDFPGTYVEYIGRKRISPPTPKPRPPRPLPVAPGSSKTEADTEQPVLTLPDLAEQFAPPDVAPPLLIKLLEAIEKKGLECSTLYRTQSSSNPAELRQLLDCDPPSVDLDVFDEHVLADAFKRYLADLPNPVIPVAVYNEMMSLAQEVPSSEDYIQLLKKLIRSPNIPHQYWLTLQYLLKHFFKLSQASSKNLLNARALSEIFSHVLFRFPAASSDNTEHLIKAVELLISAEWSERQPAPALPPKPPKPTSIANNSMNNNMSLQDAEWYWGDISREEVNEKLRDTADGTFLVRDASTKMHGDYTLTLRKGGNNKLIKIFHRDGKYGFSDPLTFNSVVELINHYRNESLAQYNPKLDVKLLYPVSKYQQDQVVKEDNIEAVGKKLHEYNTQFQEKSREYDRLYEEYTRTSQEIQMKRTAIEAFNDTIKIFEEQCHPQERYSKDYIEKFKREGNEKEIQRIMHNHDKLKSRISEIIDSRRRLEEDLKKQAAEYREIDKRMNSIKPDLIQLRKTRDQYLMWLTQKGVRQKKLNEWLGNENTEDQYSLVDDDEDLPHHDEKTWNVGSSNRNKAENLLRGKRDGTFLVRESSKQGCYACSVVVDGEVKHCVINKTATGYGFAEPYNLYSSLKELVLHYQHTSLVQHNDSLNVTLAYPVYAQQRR
readout kind: IC50 (µM)

molecule=Cc1ccc(S(=O)(=O)NCC(C)(C)O)cc1-c1cncc(-c2cn(C)nc2C)n1 study_target="UniProtKB P42338" readout_kind=IC50 endpoint_value=0.784
molecule=Cc1ccc(S(=O)(=O)NCCC(C)(C)O)cc1-c1cncc(-c2cn(CCN3CCOCC3)nc2C)n1 study_target="UniProtKB P42338" readout_kind=IC50 endpoint_value=3.83
molecule=Cc1ccc(S(=O)(=O)NCCC(C)(C)O)cc1-c1cncc(-c2cnn(CCN3CCOCC3)c2)n1 study_target="UniProtKB P42338" readout_kind=IC50 endpoint_value=6.98

[I] Cc1ccc(S(=O)(=O)NCCC(C)(C)O)cc1-c1cncc(-c2cn(C)nc2C)n1
[II] Cc1ccc(S(=O)(=O)NC2CC3(CC(O)C3)C2)cc1-c1cncc(-c2cn(C)nc2C)n1 (stereo not drawn)
[III] Cc1ncc(-c2cncc(-c3cc(S(=O)(=O)N[C@H]4CC[C@H](O)CC4)ccc3C)n2)s1
Order each entry by recorded IC50, climbing from the minimum. Give the order by naming the labels one after another as requested.
II, I, III
(II: 1.05 µM, I: 3.18 µM, III: 9.42 µM)

---

target: PI 3-kinase alpha (Homo sapiens (Human), UniProt P42336); experiment: Kinase Glo Luminescent Kinase Assay (Assay A); type: biochemical; conditions: 1 μM ATP, read-out: Assay A PI3Kα IC50
Sequence (P42336 21-1068): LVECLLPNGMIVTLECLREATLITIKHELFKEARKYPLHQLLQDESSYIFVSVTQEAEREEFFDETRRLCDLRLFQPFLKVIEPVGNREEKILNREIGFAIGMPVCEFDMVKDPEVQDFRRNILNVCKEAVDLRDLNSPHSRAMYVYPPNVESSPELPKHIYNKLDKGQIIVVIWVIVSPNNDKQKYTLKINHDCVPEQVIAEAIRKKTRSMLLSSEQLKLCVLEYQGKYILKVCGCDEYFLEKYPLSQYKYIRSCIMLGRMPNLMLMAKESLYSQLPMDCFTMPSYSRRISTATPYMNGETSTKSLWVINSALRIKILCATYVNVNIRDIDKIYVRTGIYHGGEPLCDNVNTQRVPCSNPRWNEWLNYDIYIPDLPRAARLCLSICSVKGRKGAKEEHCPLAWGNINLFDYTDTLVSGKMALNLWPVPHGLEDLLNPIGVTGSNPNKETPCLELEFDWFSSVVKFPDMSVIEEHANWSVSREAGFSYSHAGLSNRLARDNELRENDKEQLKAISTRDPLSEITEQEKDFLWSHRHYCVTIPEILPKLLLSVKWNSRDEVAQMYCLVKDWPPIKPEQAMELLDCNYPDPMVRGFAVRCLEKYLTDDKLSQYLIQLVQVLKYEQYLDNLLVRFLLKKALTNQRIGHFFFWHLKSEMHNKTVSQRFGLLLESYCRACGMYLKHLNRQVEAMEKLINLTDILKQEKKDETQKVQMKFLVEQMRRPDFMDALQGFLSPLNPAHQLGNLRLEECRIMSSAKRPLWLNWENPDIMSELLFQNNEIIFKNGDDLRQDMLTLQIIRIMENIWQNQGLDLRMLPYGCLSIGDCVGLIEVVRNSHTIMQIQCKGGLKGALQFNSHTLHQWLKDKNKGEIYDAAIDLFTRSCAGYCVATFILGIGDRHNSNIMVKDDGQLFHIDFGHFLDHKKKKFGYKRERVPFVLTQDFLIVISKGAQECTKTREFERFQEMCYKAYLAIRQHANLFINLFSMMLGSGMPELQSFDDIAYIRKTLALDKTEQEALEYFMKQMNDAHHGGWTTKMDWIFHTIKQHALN
pIC50: −log10 of the molar value.
readout kind: pIC50

compound="Cc1ccc(S(=O)(=O)NCC(C)(C)CO)cc1-c1cncc(-c2cn(C)nc2C)n1 [Example 8]" readout_kind=pIC50 endpoint_value=7.22
compound="Cc1ccc(S(=O)(=O)NCC2(C)COC2)cc1-c1cncc(-c2cn(C)nc2C)n1 [Example 4]" readout_kind=pIC50 endpoint_value=7.22
compound="Cc1ccc(S(=O)(=O)N[C@H]2CC[C@H](O)CC2)cc1-c1cncc(-c2cccnc2)n1 [Example 11]" readout_kind=pIC50 endpoint_value=6.40
compound="Cc1ncc(-c2cncc(-c3cc(S(=O)(=O)N[C@H]4CC[C@H](O)CC4)ccc3C)n2)s1 [Example 5]" readout_kind=pIC50 endpoint_value=6.82
compound="Cc1ccc(S(=O)(=O)NCCC(C)(C)O)cc1-c1cncc(-c2cn(CCN3CCOCC3)nc2C)n1 [Example 10]" readout_kind=pIC50 endpoint_value=7.15
compound="Cc1ccc(S(=O)(=O)NCCC(C)(C)O)cc1-c1cncc(-c2cn(C)nc2C)n1 [Example 3]" readout_kind=pIC50 endpoint_value=7.10

[a] Cc1ccc(S(=O)(=O)NCCC(C)(C)O)cc1-c1cncc(-c2cnn(CCN3CCOCC3)c2)n1 [Example 9]
[b] Cc1ccc(S(=O)(=O)NCC(C)(C)O)cc1-c1cncc(-c2cn(C)nc2C)n1 [Example 2]
Please choose the item with the lower pIC50 value from this pair: a and b Record your answer as the label of the chosen record.
a
(a: 6.59, b: 7.30)

---

system: IL-8-induced neutrophil shape change in human whole blood; experiment: Whole blood neutrophil shape change assay (Assay L); type: cell-based; conditions: 2 nM IL-8, neutrophil shape change by flow cytometry, read-out: Assay L WBSC IC50
readout kind: IC50 (nM)

Worked cases, IC50 given:
smiles_record=Cc1ccc(S(=O)(=O)NCCC(C)(C)O)cc1-c1cncc(-c2cnn(CCN3CCOCC3)c2)n1 readout_kind=IC50 endpoint_value=598
smiles_record=Cc1ccc(S(=O)(=O)NCCC(C)(C)O)cc1-c1cncc(-c2cn(C)nc2C)n1 readout_kind=IC50 endpoint_value=1080

[1] Cc1ccc(S(=O)(=O)NCCC(C)(C)O)cc1-c1cncc(-c2cn(CCN3CCOCC3)nc2C)n1
[2] Cc1ncc(-c2cncc(-c3cc(S(=O)(=O)N[C@H]4CC[C@H](O)CC4)ccc3C)n2)s1
[3] Cc1ncc(-c2cncc(-c3cc(S(=O)(=O)NCCCO)ccc3C)n2)s1
Please list the entries, largest IC50 first. Give the order by naming the labels one after another as requested.
3, 1, 2
(3: 1330 nM, 1: 663 nM, 2: 179 nM)
